Test system: OVCAR-5
Experiment: NCI tumour cell line growth inhibition, 48 h
Calls of active or inactive are those of the source. No stated cut-off is given here; in the data, active = GI50 up to about 1.1 µM and inactive = higher.
Pick from active, inactive when you respond.

O=C(CC1(O)C(=O)Nc2c(Cl)cccc21)c1ccccc1 (stereo not given) : inactive

Please indicate how the test categorized "C/C=C/CC(S(=O)(=O)c1ccccc1)S(=O)(=O)c1ccccc1" .
inactive

Please indicate how the test categorized "O=C(c1ccccc1)N(CCCCNC(=O)C(F)(F)F)CCCNC(=O)C(F)(F)F" .
inactive

Please indicate how the test categorized CCOC(=O)C(Cc1cn(C(C)=O)c2ccccc12)P(=O)(OCC)OCC (stereo not given) .
inactive

Please indicate how the test categorized CCCC1C(=O)C(CC)Cc2c(OC)ccc(OC)c21 (stereo not given) .
inactive

Please indicate how the test categorized COc1cc2c(cc1OC)C1C3CCCCC3CCN1CC2 (stereo not given) .
inactive

Please indicate how the test categorized "CN(C)c1cccc(OC(=O)NCCCl)c1" .
inactive

Please indicate how the test categorized "C[Si](C)(C)[C@@]1([Se]c2ccccc2)CC[C@@H]1C(=O)c1ccccc1" .
inactive

Please indicate how the test categorized "CN1CCN(CCCCN2c3ccccc3Sc3cc(N=[N+]=[N-])ccc32)CC1" .
inactive

====

System: SNB-19
Assay: NCI tumour cell line growth inhibition, 48 h
Active and inactive are the calls of the source. No stated cut-off is given here; in the data, active = GI50 up to about 1.1 µM and inactive = higher.
Pick from active, inactive when you respond.

O=C(O)COc1c(Cl)cc(Cl)c2cccnc12 : inactive
Cc1cc(-c2nc3ccccc3s2)ccc1NC(=O)[C@H](C)N : inactive
NNC1=NC(=O)NC(=O)C1 : inactive
COc1cc(O)c2c(=O)c(OC)c(-c3ccc(OC)c(O)c3)oc2c1 : inactive
COC(=O)c1cc2c(c(C(=O)OC)c1)CCC2 : inactive

Please indicate how the test categorized "COC(CN(C)C(=S)Nc1cccc2ccccc12)OC" .
inactive

Please indicate how the test categorized "NNC(=O)CSc1nc2ccccc2c(=O)n1N" .
inactive

Please indicate how the test categorized "Fc1cccc2nc(-c3ccccc3)cc(OCc3ccccc3)c12" .
inactive

Please indicate how the test categorized "O=C1c2cc(-c3ccccc3)cnc2S(=O)(=O)N1c1ccc(Br)cc1" .
inactive

====

System: COLO 205
Assay: NCI tumour cell line growth inhibition, 48 h
The source made the active and inactive calls. No stated cut-off is given here; in the data, active = GI50 up to about 1.1 µM and inactive = higher.
Pick from active, inactive when you respond.

CC(=O)Oc1cc(OC(C)=O)c2cc3c(cc2c1OC(C)=O)C(=O)C1(CCCC1)C3=O : inactive
Cc1occc1C(=S)Nc1ccc(Cl)c(C(=O)OC(C(C)C)C(C)C)c1 : inactive
O=S(=O)(CC(Cl)c1ccccc1)c1nc2ccccc2s1 (configuration not stated) : inactive
CC(C)(C)c1ccc(S(=O)(=O)N2C(c3cccc(C4CC[C@@H](C(=O)O)N4S(=O)(=O)c4ccc(C(C)(C)C)cc4)c3)CC[C@H]2C(=O)O)cc1 (some centres not stated) : inactive
C=C(C)C(=O)OC1CC2(C)OC2CC(OC(C)=O)/C(C)=C/C2OC(=O)C(=C)C21 (configuration not stated) : inactive
O=C(NC1C2CC3CC(C2)CC1C3)c1ccncn1 (configuration not stated) : inactive

Please indicate how the test categorized "C=CCOC(=O)CCCCCCCCCCCCCCCOC(=O)C1=C(CCC[C@@H](C)O[Si](C)(C)C(C)(C)C)NC(=O)N2[C@H](CC3(CC/C=C\[C@H](CC)O[Si](C(C)C)(C(C)C)C(C)C)OCCO3)CC[C@H]12" .
inactive

Please indicate how the test categorized "Cc1c(/C=N/NC(=S)Nc2ccccc2)c(=O)n(-c2ccccc2)n1C" .
inactive

Please indicate how the test categorized "Cc1ccc(S(=O)(=O)N/N=C/C2(c3ccccc3)c3ccccc3-c3ccccc32)cc1" .
inactive

====

Tested on: SK-MEL-5
Experiment: NCI tumour cell line growth inhibition, 48 h
Active and inactive are the calls of the source. No stated cut-off is given here; in the data, active = GI50 up to about 1.1 µM and inactive = higher.
Answer each item with its documented GI50.

Would you mind listing GI50 for each of the following molecules?
1. CCOC(=O)N1c2c(c3ccccc3n2C(=O)OCC)C(=O)C(OC)N1C(=O)OCC (stereo not given)
2. CC(C)c1cc2c(O)c(c1)Cc1cc(C(C)C)cc(c1O)Cc1cc(C(C)C)cc(c1O)Cc1cc(C(C)C)cc(c1O)Cc1cc(C(C)C)cc(c1O)Cc1cc(C(C)C)cc(c1O)C2
3. CN1CCC(SC2Cc3cc(Cl)ccc3Sc3ccccc32)CC1 (stereo not given)
4. CC1=CC[C@H](C[C@H](C#CCCCC2OCCO2)O[Si](C(C)C)(C(C)C)C(C)C)C(=O)CC1

1: 21.8 µM (inactive); 2: > 100 µM (inactive); 3: 13.5 µM (inactive); 4: > 100 µM (inactive)

Entry "COc1ccc([C@@]2(O)c3c(ccc(O)c3OC)[C@H]2OC)c(OC)c1" needs its GI50 filled in; supply it.
48.6 µM (inactive)

====

System: HCT-116
Test: NCI tumour cell line growth inhibition, 48 h
Calls of active or inactive are those of the source. Cut-off read from the data, not from the text of the source: active = GI50 up to about 1.1 µM and inactive = higher.
Pick from active, inactive when you respond.

Example entries begin here.
O=c1oc2ccc(Cl)cc2cc1C1=CSC2=NCCN12 : inactive
NNC(=O)CC(=O)Nc1cccc(Cl)c1 : inactive
C=CCn1c(-c2ccc([N+](=O)[O-])cc2)cs/c1=N\C(P(=O)(O)O)P(=O)(O)O : inactive
C=CCC1(OC(C)=O)C2OC(=O)C1(O)OCC2O (stereo unspecified) : inactive
NC(=O)NC(=O)c1cccc(NC(=O)CCl)c1 : active
CN(CCc1ccc(Br)cc1)CCN1CCCCC1 : inactive
CCOC(=O)/C=C(\C(=O)OCC)n1ccc(=O)[nH]c1=O : inactive
O=Cc1cc([N+](=O)[O-])no1 : inactive

Please indicate how the test categorized O=C(NC(Cc1ccccc1)P(=O)(O)c1ccccc1)OCc1ccccc1 (stereo unspecified) .
inactive

Please indicate how the test categorized COc1cc([C@@H]2c3cc4c(cc3[C@@H](NCc3cccc(F)c3)C3COC(=O)[C@@H]32)OCO4)cc(OC)c1O (stereo partly specified) .
inactive

Please indicate how the test categorized "O=C(N/N=C1/C(=O)c2c3ccccc3cc3cccc1c23)c1ccccc1" .
inactive

====

Test system: SNB-75
Experiment: NCI tumour cell line growth inhibition, 48 h
Calls of active or inactive are those of the source. Rule as the data show it: active = GI50 up to about 1.1 µM and inactive = higher.
Property: GI50

C=CCn1c(-c2ccc([N+](=O)[O-])cc2)cs/c1=N\C(P(=O)(O)O)P(=O)(O)O : > 100 µM (inactive)
O=C1C=CC(=O)c2c(O)c(N3CCN(c4ccccn4)CC3)cc(O)c21 : 7.41 µM (inactive)
CCN(CC)c1ccc(/C=C(\C#N)c2nc(N)nc(N3N=C(C)CC3(C)C)n2)cc1 : 10 µM (inactive)

Would you mind listing GI50 for each of the following compounds?
1. CC1=NN2C(c3ccc([N+](=O)[O-])cc3)=CSC2=NC(C)(C)C1
2. O=C(C#CP(=O)(O)c1ccccc1)c1ccccc1
3. CC(C)=CCC[C@@H](C)C1=C(Nc2ccccc2)C(=O)C(C)=C(O)C1=O

> 100 µM (inactive)
> 100 µM (inactive)
3.11 µM (inactive)

Would you mind listing GI50 for each of the following compounds?
1. CCOc1ccccc1NC(=O)CC1Sc2ccccc2NC1=O (configuration not stated)
2. O=Cc1cc([N+](=O)[O-])no1

1: 31.2 µM (inactive); 2: > 100 µM (inactive)

Would you mind listing GI50 for each of the following compounds?
1. Oc1ccc(O)c(Sc2nnc(CCCCCCCCc3nnc(Sc4cc(O)ccc4O)o3)o2)c1
2. NC(=O)OCc1c(-c2ccccc2)nn(-c2ccccc2)c1COC(N)=O
3. COc1cccc(C2CC(C)(O)Oc3cc4c(cc32)OCO4)c1 (configuration not stated)
4. Cc1cc(Cl)ccc1NC(=O)CC1SC(Nc2ccccc2Cl)=NC1=O (configuration not stated)

1: > 100 µM (inactive); 2: 45.7 µM (inactive); 3: 18.6 µM (inactive); 4: 38.7 µM (inactive)

====

System: Malme-3M
Assay: NCI tumour cell line growth inhibition, 48 h
The source made the active and inactive calls. Rule as the data show it: active = GI50 up to about 1.1 µM and inactive = higher.
Pick from label 1 for active, label 0 for inactive when you respond.

Example entries begin here.
COC(=O)Cc1c(C2C(CC(=O)OC)c3ccccc3N2C2OC(CO)C(O)C(O)C2O)[nH]c2ccccc12 (stereo unspecified) : label 0
COc1ccc([C@@]2(O)c3c(ccc(O)c3OC)[C@H]2OC)c(OC)c1 : label 0
COc1ccc(CC2C3=C(CCCC3)CCN2C)cc1 (stereo unspecified) : label 0
O=C(c1ccccc1)c1nc2ccc(Cl)cc2cc1C(Br)Br : label 0

Please indicate how the test categorized N=S(c1ccccc1)c1ccccc1[N+](=O)[O-] (stereo unspecified) .
label 0

Please indicate how the test categorized "Cc1cc(C)c(-c2noc(-c3ccc(Cl)cc3)c2C2=NCCN2)c(C)c1" .
label 0

Please indicate how the test categorized "COc1ccc(-c2cc(-c3ccccc3)nc(N)n2)c(O)c1" .
label 0

Please indicate how the test categorized CC1OC(OP(=O)(OCc2ccccc2)OCc2ccccc2)C(OC(=O)c2ccccc2)C(OC(=O)c2ccccc2)C1I (stereo unspecified) .
label 0

Please indicate how the test categorized "CCCCCCCCCCCCCCCCCc1cccc(OCOCCOC)c1C(=O)O" .
label 0

Please indicate how the test categorized O=C([O-])Cc1ccccc1.[Na+] [SODIUM PHENYLACETATE] .
label 0

Please indicate how the test categorized COC(=O)C([C@H]1CC[C@H](OCc2ccccc2)[C@@]1(O)COCc1ccccc1)C(C)(O)CCc1ccccc1 (stereo partly specified) .
label 0

Please indicate how the test categorized "O=C1CCc2cc3c(cc21)CC1(Cc2cc4c(cc2C1)CCCC4)C3" .
label 0

Please indicate how the test categorized "CN(/N=N/c1[nH]cnc1C(N)=O)C1CCCCC1" .
label 0

Value source: ChEMBL document CHEMBL1201862
